# TGT: HDAC2 (Homo sapiens)
# Construct: purchased Abcam (Cambridge, MA, USA)
# Sequence (Q92769 whole entry): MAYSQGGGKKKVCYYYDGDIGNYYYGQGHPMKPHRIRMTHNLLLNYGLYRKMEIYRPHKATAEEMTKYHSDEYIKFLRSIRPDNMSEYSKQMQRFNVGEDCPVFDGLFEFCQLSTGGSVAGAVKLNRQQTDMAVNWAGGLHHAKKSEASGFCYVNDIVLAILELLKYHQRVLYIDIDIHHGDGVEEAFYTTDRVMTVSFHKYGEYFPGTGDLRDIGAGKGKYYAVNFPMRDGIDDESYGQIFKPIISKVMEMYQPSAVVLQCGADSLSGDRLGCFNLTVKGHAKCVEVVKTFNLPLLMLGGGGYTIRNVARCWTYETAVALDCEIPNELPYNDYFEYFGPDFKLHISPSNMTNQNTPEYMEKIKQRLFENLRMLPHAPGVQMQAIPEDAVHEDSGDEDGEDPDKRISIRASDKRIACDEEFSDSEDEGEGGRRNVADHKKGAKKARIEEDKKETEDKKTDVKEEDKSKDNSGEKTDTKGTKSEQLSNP
# EXPERIMENT DESCRIPTION: In vitro HDAC2 inhibition assay (Boc-Lys(acetyl)-AMC fluorogenic)
# Type: biochemical
ENDPOINT LABEL: IC50

IC50 recorded for this molecule, `CNCCNCc1cccc(-c2nc(Nc3cccc(OCCCCCCC(=O)NO)c3)c(C)c(-c3ccnc4[nH]ccc34)n2)c1` , is 4.07 nM

---

# Tested on: DU145 cells
# EXPERIMENT DESCRIPTION: MTT cell growth assay, DU145
# TEST CONTEXT: Homo sapiens, DU-145, 72 h, read-out: DU145 cell proliferation IC50
ENDPOINT LABEL: IC50 (nM)
Give your result in nM as a bare value.

IC50 recorded for this molecule, `CNCCNCc1cccc(-c2nc(Nc3cccc(OCCCCCCC(=O)NO)c3)c(C)c(-c3ccnc4[nH]ccc34)n2)c1` , is 90

---

# TGT: UniProtKB Q86X55
# Sequence (Q86X55 whole entry): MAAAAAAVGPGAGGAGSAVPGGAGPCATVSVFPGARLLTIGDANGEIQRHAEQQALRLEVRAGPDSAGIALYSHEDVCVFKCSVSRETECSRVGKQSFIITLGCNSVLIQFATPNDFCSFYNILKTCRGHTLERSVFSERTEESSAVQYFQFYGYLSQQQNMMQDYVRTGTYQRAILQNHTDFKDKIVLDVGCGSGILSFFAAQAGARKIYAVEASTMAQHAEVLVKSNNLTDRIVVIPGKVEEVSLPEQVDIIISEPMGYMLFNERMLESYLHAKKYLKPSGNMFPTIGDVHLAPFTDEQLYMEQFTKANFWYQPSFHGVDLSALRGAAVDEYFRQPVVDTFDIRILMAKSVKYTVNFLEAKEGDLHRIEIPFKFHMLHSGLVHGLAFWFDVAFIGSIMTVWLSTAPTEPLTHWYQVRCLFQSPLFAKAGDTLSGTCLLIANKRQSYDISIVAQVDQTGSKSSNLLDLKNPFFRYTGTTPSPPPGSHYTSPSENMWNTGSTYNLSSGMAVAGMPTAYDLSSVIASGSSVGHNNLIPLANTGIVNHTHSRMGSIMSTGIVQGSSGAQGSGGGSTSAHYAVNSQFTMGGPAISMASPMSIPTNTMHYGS
Provide the recorded pIC50 for the entries that follow.
# pIC50 is unitless: minus log10 of the molar concentration; print number only

pIC50 recorded for this molecule, `CNCCNCc1cccc(-c2nc(Nc3cccc(OCCCCCCC(=O)NO)c3)c(C)c(-c3ccnc4[nH]ccc34)n2)c1` , is 8.43

pIC50 recorded for this molecule, `CNCCNCc1cccc(-c2nc(Nc3cccc(OCCCCCCC(=O)NO)c3)c(C)c(-c3cc4ccccc4s3)n2)c1` , is 7.52
